For each record, write down the corresponding pKi.
- experimental details: Displacement of [3H]ketanserin from 5HT2A receptor in rabbit cerebral cortex membrane
- Format: cell membranes, Oryctolagus cuniculus
Value format note: pKi is -log10 of concentration (mol/L); just state the number.

Data request: Record request: pKi value, item C=C1C(=O)O[C@@H]2C3O[C@]3(C)CC/C=C(\C)CC[C@@H]12 (some centres not stated)
Data returned: 3.64

Data request: Record request: pKi value, item CN1C[C@@H](NS(=O)(=O)N(C)C)C[C@@H]2c3cccc4c3c(cn4C)C[C@H]21
Data returned: 8.08
